# Test system: CCRIS mutagenicity, Ames/micronucleus/aberration tests
# Measurement notes: CCRIS mutagenicity studies
# Run conditions: Test System: AMES SALMONELLA TYPHIMURIUM; Strain/Indicator: TA1535; Metabolic Activation: RAT, LIVER, S-9, AROCLOR 1254; Method: PREINCUBATION
Activity calls are given as the source filed them. No rule for the calls is given here.
Thanks in advance; please answer with one of these: active, inactive

Tell me the assay call for CC(O)c1ccccc1 (configuration not stated) please. inactive

Tell me the assay call for CC(=O)O[C@]1(C(C)=O)CC[C@H]2[C@@H]3C4OC4(Cl)C4=CC(=O)[C@@H]5C[C@@H]5[C@]4(C)[C@H]3CC[C@@]21C (some centres not stated) please. inactive

Tell me the assay call for "Cc1ccc(C)cc1" please. inactive

Tell me the assay call for "CCCN(CCC)N=O" please. active

Tell me the assay call for "Oc1ccc(Cl)c(Cl)c1" please. inactive

Tell me the assay call for "C=CCOC(=O)CC(C)C" please. inactive

Tell me the assay call for "Nc1c(Br)cc(Br)c2c1C(=O)c1ccccc1C2=O" please. inactive

====

# Tested on: CCRIS mutagenicity, Ames/micronucleus/aberration tests
# Measurement notes: CCRIS mutagenicity studies
# Run conditions: Test System: AMES SALMONELLA TYPHIMURIUM; Strain/Indicator: TA98; Metabolic Activation: HAMSTER, LIVER, S-9, AROCLOR 1254 (10%); Method: PREINCUBATION
# Excerpt: The CCRIS database contains chemical records with carcinogenicity, mutagenicity, tumor promotion, and tumor inhibition test results. It was developed by the National Cancer Institute (NCI). Data are derived from studies cited in primary journals, current awareness tools, NCI reports, and other sources. Test results have been reviewed by experts in carcinogenesis and mutagenesis. CCRIS provides historical information from the years 1985 - 2011. It is no longer updated. […]
The source made the active and inactive calls. The rule behind the calls is not given here.
Measured endpoint: mutagenic call

Look over these answered cases.
1. CC(C)CCCCCCCOC(=O)c1ccccc1C(=O)OCCCCCCCC(C)C: inactive; negative
2. CC(O)CBr (stereo not given): inactive; negative
3. CN(C)CCN(Cc1ccsc1)c1ccccn1: inactive; negative
4. Nc1ccccc1-c1ccccc1: inactive; negative

Suppose we examine the compound "O=C(Nc1ccccc1)c1cc2ccccc2c(N=Nc2cc(Cl)ccc2Cl)c1O" ; what mutagenic call value has been reported? inactive; negative

Suppose we examine the compound "Cl/C=C\Cl" ; what mutagenic call value has been reported? inactive; negative

Suppose we examine the compound "O=C1c2ccccc2C(=O)C1c1ccc2ccccc2n1" ; what mutagenic call value has been reported? inactive; negative

Suppose we examine the compound "CCCCCCCCOc1ccc(C(=O)O)cc1" ; what mutagenic call value has been reported? inactive; negative

Suppose we examine the compound "CC(C)C(C)C" ; what mutagenic call value has been reported? inactive; negative

====

# Tested on: CCRIS mutagenicity, Ames/micronucleus/aberration tests
# Measurement notes: CCRIS mutagenicity studies
# Run conditions: Test System: AMES SALMONELLA TYPHIMURIUM; Strain/Indicator: TA98; Metabolic Activation: NONE; Method: PREINCUBATION
The source made the active and inactive calls. The rule behind the calls is not given here.
Thanks in advance; please answer with one of these: active, inactive

Tell me the assay call for "CCCCCNC(=O)/C=C/c1ccc([N+](=O)[O-])o1" please. active

Tell me the assay call for "OC[C@@H](O)[C@@H](O[C@@H]1O[C@H](CO)[C@H](O)[C@H](O)[C@H]1O)[C@H](O)[C@@H](O)CO" please. inactive

Tell me the assay call for "CCCCCCCCCCCC(=O)N(CCO)CCO" please. inactive

Tell me the assay call for "Nc1ccccc1-c1ccccc1" please. inactive

Tell me the assay call for "COc1cc(Cl)c(OC)cc1Cl" please. inactive

Tell me the assay call for "O=[N+]([O-])c1ccc2c(c1)Cc1cc(O)ccc1-2" please. active

Tell me the assay call for "O=C/C(CCl)=C(/Cl)C(=O)O" please. active

Tell me the assay call for "CCCCCCCCOc1ccc(C(=O)O)cc1" please. inactive

Tell me the assay call for "Nc1cc2c3c(ccc2c2ccccc12)[C@H](O)[C@@H](O)C=C3" please. inactive

Tell me the assay call for "C1CC[C@H]2O[C@H]2C1" please. inactive

Tell me the assay call for "CCN(CC)CCCN" please. inactive

Tell me the assay call for "C=CCN(CC=C)CC=C" please. inactive

Tell me the assay call for "Cc1ccccc1N" please. inactive

Tell me the assay call for "CC(=O)C=O" please. active

Tell me the assay call for "O=C1c2ccccc2C(=O)C1c1ccc2ccccc2n1" please. inactive

Tell me the assay call for NC(CNCCCC[C@H](N)C(=O)O)C(=O)O (stereo partly specified) please. inactive

Tell me the assay call for "O=Cc1ccc([N+](=O)[O-])cc1[N+](=O)[O-]" please. active

Tell me the assay call for "C=CC(=C)C" please. inactive

Tell me the assay call for "O=[N+]([O-])c1ccc2c(c1)Oc1ccccc1O2" please. active

Tell me the assay call for "O=C(Nc1ccc([N+](=O)[O-])cc1Cl)c1cc(Cl)ccc1O" please. inactive

Tell me the assay call for "O=S(=O)(O)c1ccc2cc(O)c(S(=O)(=O)O)cc2c1" please. inactive

====

# Tested on: CCRIS mutagenicity, Ames/micronucleus/aberration tests
# Measurement notes: CCRIS mutagenicity studies
# Run conditions: Test System: AMES SALMONELLA TYPHIMURIUM; Strain/Indicator: TA100; Metabolic Activation: RAT, LIVER, S-9, PHENOBARBITAL AND 5,6-BENZOFLAVONE; Method: PREINCUBATION
Calls of active or inactive are those of the source. The rule behind the calls is not given here.
Thanks in advance; please answer with one of these: TRUE for active, FALSE for inactive

Tell me the assay call for "COc1ccc2oc3cc(O)cc(O)c3c(=O)c2c1" please. TRUE

Tell me the assay call for "OC[C@@H](O)[C@@H](O[C@@H]1O[C@H](CO)[C@H](O)[C@H](O)[C@H]1O)[C@H](O)[C@@H](O)CO" please. FALSE

Tell me the assay call for "Cc1c(N)cccc1N=[N+]([O-])c1cccc(N)c1C" please. FALSE

Tell me the assay call for "O=CC=O" please. TRUE

Tell me the assay call for "CC1=CC(=O)C=C(C)C1=O" please. FALSE

Tell me the assay call for "O=C(O)C(Cl)Cl" please. FALSE

Tell me the assay call for "CC1=C(O)C(=O)CO1" please. TRUE

Tell me the assay call for "Cc1ccccc1N" please. FALSE

Tell me the assay call for "CO/N=C(\C(=O)N[C@@H]1C(=O)N2C(C(=O)OCOC(=O)C(C)(C)C)=C(/C=C\c3scnc3C)CS[C@H]12)c1csc(N)n1" please. FALSE

Tell me the assay call for "Fc1cccc2ncccc12" please. TRUE

Tell me the assay call for "O=Cc1ccc([N+](=O)[O-])cc1[N+](=O)[O-]" please. TRUE

====

# System: CCRIS mutagenicity, Ames/micronucleus/aberration tests
# Measurement notes: CCRIS mutagenicity studies
# Run conditions: End Point: IN VITRO CHROMOSOMAL ABERRATIONS; Test System: CHL CELLS; Metabolic Activation: RAT, LIVER, S-9, SODIUM PHENOBARBITAL AND 5,6-BENZOFLAVONE
Active and inactive are the calls of the source. No rule for the calls is given here.
Thanks in advance; please answer with one of these: active, inactive

Tell me the assay call for "COC(=O)C(Cl)Cl" please. active

Tell me the assay call for CC(C)(c1ccc(O)cc1)c1ccc(O)cc1 (tested in a mixture with another compound) please. inactive

Tell me the assay call for "CCN(CC)c1cc(NC(C)=O)c(N=Nc2c(Cl)cc([N+](=O)[O-])cc2[N+](=O)[O-])cc1OC" please. inactive

Tell me the assay call for "BrCCCCBr" please. active

Tell me the assay call for "Nc1ccc(Oc2ccc(N)cc2)cc1" please. active

Tell me the assay call for "C=CCCl" please. active

Tell me the assay call for "NCc1ccc(CN)cc1" please. inactive

Tell me the assay call for "CC(=O)N1CCc2cc([N+](=O)[O-])ccc21" please. inactive

Tell me the assay call for "CNN" please. active

Tell me the assay call for "O=C(O)C(Cl)Cl" please. active

Tell me the assay call for "COCCl" please. active

Tell me the assay call for c1ccc(C2CO2)cc1 (stereo not drawn) please. active

Tell me the assay call for "O=CC=O" please. active

====

# System: CCRIS mutagenicity, Ames/micronucleus/aberration tests
# Measurement notes: CCRIS mutagenicity studies
# Run conditions: Test System: AMES SALMONELLA TYPHIMURIUM; Strain/Indicator: TA1537; Metabolic Activation: RAT, LIVER, S-9, AROCLOR 1254; Method: PREINCUBATION
The source made the active and inactive calls. The rule behind the calls is not given here.
Thanks in advance; please answer with one of these: active, inactive

Tell me the assay call for "C[Si](C)(C)Cl" please. inactive

Tell me the assay call for "Cc1ccc(C)cc1" please. inactive

Tell me the assay call for "O=[N+]([O-])c1cc(Cl)c(Cl)c(Cl)c1Cl" please. inactive

Tell me the assay call for CC(=O)O[C@]1(C(C)=O)CC[C@H]2[C@@H]3C4OC4(Cl)C4=CC(=O)[C@@H]5C[C@@H]5[C@]4(C)[C@H]3CC[C@@]21C (some centres undefined) please. inactive

Tell me the assay call for "C=CC(=O)OCC" please. inactive

Tell me the assay call for CC(O)c1ccccc1 (centres undefined) please. inactive

Tell me the assay call for "Oc1ccc(Cl)c(Cl)c1" please. inactive

Tell me the assay call for "Cc1cc(=O)oc2cc(O)ccc12" please. inactive

Tell me the assay call for "Nc1c(Br)cc(Br)c2c1C(=O)c1ccccc1C2=O" please. active

Tell me the assay call for "COc1cccc(N)c1" please. inactive

Tell me the assay call for "CC1=CC(=O)C=C2CC[C@@H]3[C@H](CC[C@]4(C)C(=O)CC[C@@H]34)[C@@]12C" please. inactive

Tell me the assay call for CCC1CO1 (centres undefined) please. inactive

Tell me the assay call for "CNN" please. inactive

Tell me the assay call for "C=CCOC(=O)CC(C)C" please. inactive
